Target: BB1, BB2 and BB3 expressed by rat brain neurons
Assay: displacement of radiolabeled bombesin, rat cerebral cortex
outcomeMeasure: IC50 (nM)
Your answer should be a plain number; it is taken to be in nM.

[in] Identify measured IC50 associated with {fluorescein (carboxylic form)}-GNHWAVGHLM-NH2 [fluoresceinyl-NMC peptide]
[out] 3.2

Data credit: patent US7041642B1
